Catalogue of Kq readings, one per entry.
# Species on record: Gallus gallus
# Procedure details: Binding affinity to hen egg white lysozyme assessed as effective quenching constant at 310 K by Lineweaver-Burk plot analysis
Record the value in ×10⁵ L/mol, omitting the unit from your answer.

Worked cases, Kq given:
[[record]]
molecule = "O=C(O)[C@H]1O[C@@H](Oc2cc3oc(-c4ccccc4)cc(=O)c3c(O)c2O)[C@H](O)[C@@H](O)[C@@H]1O [BAICALIN]"
recorded_value = 1.16

[[record]]
molecule = "O=C(O)[C@H]1O[C@@H](Oc2cc3oc(-c4ccc(O)cc4)cc(=O)c3c(O)c2O)[C@H](O)[C@@H](O)[C@@H]1O [SCUTELLARIN]"
recorded_value = 1.15


Now examine the next entry.
Query: What does the data say about its Kq? Entry: O=c1cc(-c2ccccc2)oc2cc(O)c(O)c(O)c12 [BAICALEIN]
Response: 1.68

###

# Species: Gallus gallus
# Procedure details: Binding affinity to hen egg white lysozyme assessed as Stem-Volmer dynamic quenching constant at 310 K by Stern-Volmer plot analysis
Each entry below carries its reported KSV.
Reply with just the number (in ×10⁵ L/mol).

[[record]]
chemical_smiles = "O=C(O)[C@H]1O[C@@H](Oc2cc3oc(-c4ccc(O)cc4)cc(=O)c3c(O)c2O)[C@H](O)[C@@H](O)[C@@H]1O"
reported_property = "KSV"
unit_string = "×10⁵ L/mol"
recorded_value = 1.55

[[record]]
chemical_smiles = "O=C(O)[C@H]1O[C@@H](Oc2cc3oc(-c4ccccc4)cc(=O)c3c(O)c2O)[C@H](O)[C@@H](O)[C@@H]1O"
reported_property = "KSV"
unit_string = "×10⁵ L/mol"
recorded_value = 1.14


Query: If you can, please state the reported KSV value of O=c1cc(-c2ccccc2)oc2cc(O)c(O)c(O)c12 .
Response: 1.75

###

The following molecules are listed with their measured Kq values.
# Species on record: Gallus gallus
# Procedure details: Binding affinity to hen egg white lysozyme assessed as quenching rate constant at 310 K by Stern-Volmer plot analysis
Reply numerically in ×10¹³ L/mol/s, unit not repeated.

[[record]]
chemical_smiles = "O=c1cc(-c2ccccc2)oc2cc(O)c(O)c(O)c12"
recorded_value = 1.75


Query: Recorded Kq of O=C(O)[C@H]1O[C@@H](Oc2cc3oc(-c4ccccc4)cc(=O)c3c(O)c2O)[C@H](O)[C@@H](O)[C@@H]1O , please.
Response: 1.14

Query: Please report the recorded Kq for O=C(O)[C@H]1O[C@@H](Oc2cc3oc(-c4ccc(O)cc4)cc(=O)c3c(O)c2O)[C@H](O)[C@@H](O)[C@@H]1O .
Response: 1.55

###

List of Kq values.
# Organism: Gallus gallus
# Procedure details: Binding affinity to hen egg white lysozyme assessed as quenching rate constant at 298 K by Stern-Volmer plot analysis
All answers are understood in ×10¹³ L/mol/s, so give the number only.

Query: Data request, read-out Kq, for CC(C)(CO)[C@@H](O)C(=O)NCCC(=O)O
Response: 1.02

Query: Looking for the measured Kq of O=C(O)[C@H]1O[C@@H](Oc2cc3oc(-c4ccc(O)cc4)cc(=O)c3c(O)c2O)[C@H](O)[C@@H](O)[C@@H]1O , can you help?
Response: 1.63

Query: What measured Kq goes with O=C(O)[C@H]1O[C@@H](Oc2cc3oc(-c4ccccc4)cc(=O)c3c(O)c2O)[C@H](O)[C@@H](O)[C@@H]1O ?
Response: 1.25

Query: I would be grateful if you could share the reported Kq for O=c1cc(-c2ccccc2)oc2cc(O)c(O)c(O)c12 .
Response: 2.02
